Measurement Target: GLP-1 receptor (GLP-1R) (human, UniProt P43220 24-463)
Method Notes: cell-based or functional assay
Starred links: 1 amine or outer side, 2 acyl side, 3 side chain; linkers in the order of their positions; H or OH if unused. Non-standard residues stand in square brackets, D forms with d. Groups on a side chain read outwards from the residue. Primed or numbered codes have the meaning given here. No end group written: not given here. *: point of attachment. Dodecylbenzoate = dodecylbenzoyl lipid group; γGlu = O=C(O)[C@H](CCC(=O)[*:2])N[*:1]; Stearoyl = CCCCCCCCCCCCCCCCCC(=O)*; αMeF = C[C@](N)(Cc1ccccc1)C(=O)O; αMeK = C[C@](N)(CCCCN)C(=O)O; αMeS = C[C@](N)(CO)C(=O)O; PEG2′ = not defined here; Aib = CC(C)(N)C(=O)O; Ahx = NCCCCCC(=O)O
Reported Primary assay EC50 (cAMP), Mean pM GLP-1R values for the following binders.
Parameter: Primary assay EC50 (cAMP), Mean pM GLP-1R

• H[Aib]EGS[αMeF]TSDV[αMeS]S[αMeF]LEGEAAK([PEG2′-PEG2′-Stearoyl])E[αMeF]IA[αMeF]VV[αMeK]GG-NH2 [SEQ ID NO 162] = 54 pM
• H[Aib]EGS[αMeF]TSDV[αMeS]S[αMeF]LEGEAA[αMeK]E[αMeF]IA[αMeF]VVK([Ahx-Ahx-Ahx-Dodecylbenzoate])GG-NH2 [SEQ ID NO 178] = 3.6 pM
• H[Aib]EGS[αMeF]TSDV[αMeS]S[αMeF]LEGEAA[αMeK]E[αMeF]IA[αMeF]VVK([γGlu-γGlu-Dodecylbenzoate])GG-NH2 [SEQ ID NO 174] = 16.3 pM
• H[Aib]EGS[αMeF]TSDV[αMeS]S[αMeF]LEGEAA[αMeK]E[αMeF]IA[αMeF]VVK([PEG2′-PEG2′-Stearoyl])GG-NH2 [SEQ ID NO 198] = 27.9 pM
• H[Aib]EGS[αMeF]TSDV[αMeS]S[αMeF]LEGEAA[αMeK]E[αMeF]IA[αMeF]VVK([γGlu-γGlu-γGlu-Dodecylbenzoate])GG-NH2 [SEQ ID NO 175] = 17.4 pM
• H[Aib]EGS[αMeF]TSDV[αMeS]S[αMeF]LEGEAA[αMeK]E[αMeF]IA[αMeF]VVK([PEG2′-PEG2′-Stearoyl])GG-NH2 [SEQ ID NO 189] = 20.8 pM
• H[Aib]EGS[αMeF]TSDV[αMeS]S[αMeF]LEGEAA[αMeK]E[αMeF]IA[αMeF]VVK([PEG2′-PEG2′-PEG2′-Stearoyl])GG-NH2 [SEQ ID NO 190] = 7.2 pM
• H[Aib]EGS[αMeF]TSDV[αMeS]S[αMeF]LEGEAA[αMeK]E[αMeF]IA[αMeF]VVK([γGlu-Dodecylbenzoate])GG-NH2 [SEQ ID NO 173] = 15.1 pM
• H[Aib]EGS[αMeF]TSDV[αMeS]S[αMeF]LEGEAAK([PEG2′-PEG2′-PEG2′-Stearoyl])E[αMeF]IA[αMeF]VV[αMeK]GG-NH2 [SEQ ID NO 154] = 2.5 pM
